# IC50 per record follows
target: Kras and SOS1 (biotin-tagged human Kras loaded with GDP, His-tagged human SOS1) (Homo sapiens, UniProt P01116, G12D); construct: made in house; host or cells: E. coli (stated for Kras only); experiment: Protein-protein interaction inhibition between Kras and SOS1 (KrasGl2D-SOS PPI) using AlphaScreen; format: binding; conditions: AlphaScreen; biotin-tagged human Kras loaded with GDP, His-tagged human SOS1; read-out: KRAS G12D-SOS PPI IC50
Sequence (P01116 1-188 isoform P01116-2 G12D): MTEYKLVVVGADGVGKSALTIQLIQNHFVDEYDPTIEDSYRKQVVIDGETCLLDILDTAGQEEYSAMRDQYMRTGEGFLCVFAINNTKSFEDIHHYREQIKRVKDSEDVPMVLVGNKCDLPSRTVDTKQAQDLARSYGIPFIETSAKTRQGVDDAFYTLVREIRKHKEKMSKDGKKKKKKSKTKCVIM
Positions of bridges follow the written chain, without caps; N, C: chain ends. Non-standard residues stand in square brackets, D forms with d. Residues, ends and D or L forms follow the SMILES beside them. *: point of attachment. hPhe(3-Cl-4-CF3) = N[C@@H](CCc1ccc(C(F)(F)F)c(Cl)c1)C(=O)O; hPhe(4-CF3) = N[C@@H](CCc1ccc(C(F)(F)F)cc1)C(=O)O; NMePhe(4-Cl) = CN[C@@H](Cc1ccc(Cl)cc1)C(=O)O; NMePhe(4-F) = CN[C@@H](Cc1ccc(F)cc1)C(=O)O; NMeGly(cPent) = CN[C@H](C(=O)O)C1CCCC1; NMeCha = CN[C@@H](CC1CCCCC1)C(=O)O; NMeChg = CN[C@H](C(=O)O)C1CCCCC1; NMeF = CN[C@@H](Cc1ccccc1)C(=O)O; NMeD = CN[C@@H](CC(=O)O)C(=O)O; NMeL = CN[C@@H](CC(C)C)C(=O)O; NMeV = CN[C@H](C(=O)O)C(C)C; d(β3hA) = C[C@@H](N)CC(=O)O; NMeS = CN[C@@H](CO)C(=O)O; NMeA = CN[C@@H](C)C(=O)O; Piperidide = C1CCN(*)CC1; Pyrrolidide = C1CCN(*)C1; Ac5c = NC1(C(=O)O)CCCC1; Aib = CC(C)(N)C(=O)O; Sar = CNCC(=O)O
Express it in nM; write the number only.

Known results for molecules:
Could you tell me which IC50 is on file for CC[C@H](C)[C@@H]1NC(=O)[C@H](CC(C)C)N(C)C(=O)C[C@@H](C(=O)N2CCCCC2)N(C)C(=O)[C@H](C(C)C)N(C)C(=O)C2(CCCC2)NC(=O)[C@@H]2CCCN2C(=O)[C@H](CCc2ccc(C(F)(F)F)c(Cl)c2)NC(=O)CN(C)C(=O)[C@H](Cc2ccc(F)cc2)N(C)C(=O)CN(C)C(=O)CN(C)C1=O [Compound 1631] ([NMeL]I[Sar][Sar][NMePhe(4-F)][Sar][hPhe(3-Cl-4-CF3)]P[Ac5c][NMeV][NMeD]-Piperidide; lactam N-11) ?
5

Could you tell me which IC50 is on file for CC[C@H](C)[C@@H]1NC(=O)[C@H](CC(C)C)N(C)C(=O)C[C@@H](C(=O)N2CCCCC2)N(C)C(=O)[C@H](C2CCCCC2)N(C)C(=O)C2(CCCC2)NC(=O)[C@@H]2CCCN2C(=O)[C@H](CCc2ccc(C(F)(F)F)c(Cl)c2)NC(=O)CN(C)C(=O)[C@H](CO)N(C)C(=O)CN(C)C(=O)CN(C)C1=O [Compound 1687] ([NMeL]I[Sar][Sar][NMeS][Sar][hPhe(3-Cl-4-CF3)]P[Ac5c][NMeChg][NMeD]-Piperidide; lactam N-11) ?
4.2

Could you tell me which IC50 is on file for CC[C@H](C)[C@@H]1NC(=O)[C@H](CC(C)C)N(C)C(=O)C[C@@H](C)NC(=O)[C@H](C(C)C)N(C)C(=O)C(C)(C)NC(=O)[C@@H]2CCCN2C(=O)[C@H](CCc2ccc(C(F)(F)F)c(Cl)c2)NC(=O)CN(C)C(=O)[C@H](CC2CCCCC2)N(C)C(=O)CN(C)C(=O)CN(C)C1=O [Compound 641] (cyclo([Aib][NMeV][d(β3hA)][NMeL]I[Sar][Sar][NMeCha][Sar][hPhe(3-Cl-4-CF3)]P)) ?
18

Could you tell me which IC50 is on file for CC[C@H](C)[C@@H]1NC(=O)[C@H](CC(C)C)N(C)C(=O)C[C@@H](C)NC(=O)[C@H](C2CCCC2)N(C)C(=O)C2(CCCC2)NC(=O)[C@@H]2CCCN2C(=O)[C@H](CCc2ccc(C(F)(F)F)c(Cl)c2)NC(=O)CN(C)C(=O)[C@H](CC2CCCCC2)N(C)C(=O)CN(C)C(=O)CN(C)C1=O [Compound 122] (cyclo([Ac5c][NMeGly(cPent)][d(β3hA)][NMeL]I[Sar][Sar][NMeCha][Sar][hPhe(3-Cl-4-CF3)]P)) ?
8.6

---
Could you tell me which IC50 is on file for CC[C@H](C)[C@@H]1NC(=O)[C@H](C)N(C)C(=O)C[C@@H](C(=O)N2CCCC2)NC(=O)[C@H](CC(C)C)N(C)C(=O)[C@H](Cc2ccccc2)N(C)C(=O)[C@@H]2CCCN2C(=O)[C@H](CCc2ccc(C(F)(F)F)cc2)NC(=O)CN(C)C(=O)[C@H](Cc2ccc(Cl)cc2)N(C)C(=O)CN(C)C(=O)CN(C)C1=O [Compound 1048] ([NMeA]I[Sar][Sar][NMePhe(4-Cl)][Sar][hPhe(4-CF3)]P[NMeF][NMeL]D-Pyrrolidide; lactam N-11) ?
18

====

target: Kras and SOS1 (biotin-tagged human Kras loaded with GDP, His-tagged human SOS1) (Homo sapiens, UniProt P01116, G12D); construct: made in house; host or cells: E. coli (stated for Kras only); test: Protein-protein interaction inhibition between Kras and SOS1 (KrasGl2D-SOS PPI) using AlphaScreen; assay type: binding; settings: AlphaScreen; biotin-tagged human Kras loaded with GDP, His-tagged human SOS1; read-out: KRAS G12D-SOS PPI IC50
Starred links: 1 amine or outer side, 2 acyl side, 3 side chain; linkers in the order of their positions; H or OH if unused. Positions of bridges follow the written chain, without caps; N, C: chain ends. Non-standard residues stand in square brackets, D forms with d. Residues, ends and D or L forms follow the SMILES beside them. *: point of attachment. hPhe(3-Cl-4-CF3) = N[C@@H](CCc1ccc(C(F)(F)F)c(Cl)c1)C(=O)O; NMePhe(4-Me) = CN[C@@H](Cc1ccc(C)cc1)C(=O)O; NMePhe(2-Me) = CN[C@@H](Cc1ccccc1C)C(=O)O; NMedβ3hAla = C[C@H](CC(=O)[*:2])N(C)[*:1]; NMeCha = CN[C@@H](CC1CCCCC1)C(=O)O; NMeChg = CN[C@H](C(=O)O)C1CCCCC1; NMeI = CC[C@H](C)[C@H](NC)C(=O)O; NMeD = CN[C@@H](CC(=O)O)C(=O)O; NMeL = CN[C@@H](CC(C)C)C(=O)O; NMeS = CN[C@@H](CO)C(=O)O; NMeA = CN[C@@H](C)C(=O)O; Piperidide = C1CCN(*)CC1; Ac5c = NC1(C(=O)O)CCCC1; Aze = O=C(O)[C@@H]1CCN1; CH2CMe2OH = CC(C)(O)C*; Aib = CC(C)(N)C(=O)O; Isopentyl = CC(C)CC*; Sar = CNCC(=O)O
assay_endpoint: IC50 (nM)
Express it in nM; write the number only.

Could you tell me which IC50 is on file for CC[C@H](C)[C@@H]1NC(=O)[C@H](CC(C)C)N(C)C(=O)C[C@@H](C(=O)N(C)C)N(C)C(=O)[C@H]([C@@H](C)CC)N(C)C(=O)C2(CCCC2)NC(=O)[C@H](Cc2ccccc2C)N(C)C(=O)[C@H](CCc2ccc(C(F)(F)F)c(Cl)c2)NC(=O)CN(C)C(=O)[C@H](Cc2ccc(C)cc2)N(C)C(=O)[C@@H]2CCN2C(=O)[C@H](C)N(C)C1=O [Compound 1924] ([NMeL]I[NMeA][Aze][NMePhe(4-Me)][Sar][hPhe(3-Cl-4-CF3)][NMePhe(2-Me)][Ac5c][NMeI][NMeD]-NMe2; lactam N-11) ?
5.1

Could you tell me which IC50 is on file for CC[C@H](C)[C@@H]1NC(=O)[C@H](CC(C)C)N(C)C(=O)C[C@@H](C(=O)N2CCCCC2)N(C)C(=O)[C@H](CC(C)C)N(C)C(=O)C(C)(C)NC(=O)[C@H](COCC(C)(C)O)N(C)C(=O)[C@H](CCc2ccc(C(F)(F)F)c(Cl)c2)NC(=O)CN(C)C(=O)[C@H](COCCC(C)C)N(C)C(=O)CN(C)C(=O)CN(C)C1=O [Compound 1541] ([NMeL]I[Sar][Sar][NMeS](Isopentyl)[Sar][hPhe(3-Cl-4-CF3)][NMeS](CH2CMe2OH)[Aib][NMeL][NMeD]-Piperidide; lactam N-11) ?
4

For the next question, use this compound.
Could you tell me which IC50 is on file for CC[C@H](C)[C@@H]1NC(=O)[C@H](CC(C)C)N(C)C(=O)C[C@@H](C)N(C)C(=O)[C@H](C2CCCCC2)N(C)C(=O)C2(CCCC2)NC(=O)[C@@H]2CCCN2C(=O)[C@H](CCc2ccc(C(F)(F)F)c(Cl)c2)NC(=O)CN(C)C(=O)[C@H](CC2CCCCC2)N(C)C(=O)CN(C)C(=O)CN(C)C1=O [Compound 629] (cyclo([Ac5c][NMeChg][NMedβ3hAla][NMeL]I[Sar][Sar][NMeCha][Sar][hPhe(3-Cl-4-CF3)]P)) ?
10
